- Test system: 966289-007-R4-J1-PDC complex spheroid viability
- Assay name: Anticancer human tumor 966289-007-R4-J1-PDC patient-derived pancreatic adenocarcinoma cell line growth inhibition [GQUAD]; active = viability on the fitted dose curve at most 10% of control; inactive = the rest
- Test conditions: second compound 3.16 µM; first compound 0.316 µM
Assign a class; possible classes are active, inactive

[in] Test call for this compound, please: O=C(c1cc(Cc2n[nH]c(=O)c3ccccc23)ccc1F)N1CCN(C(=O)C2CC2)CC1 + CN(C)c1ccc(Nc2c3ccc(NC(=O)CCN4CCCC4)cc3nc3cc(NC(=O)CCN4CCCC4)ccc23)cc1
[out] inactive

[in] Test call for this compound, please: CCCS(=O)(=O)Nc1ccc(F)c(C(=O)c2c[nH]c3ncc(-c4ccc(Cl)cc4)cc23)c1F + CN(C)c1ccc(Nc2c3ccc(NC(=O)CCN4CCCC4)cc3nc3cc(NC(=O)CCN4CCCC4)ccc23)cc1
[out] inactive

[in] Test call for this compound, please: O=c1[nH]cc(F)c(=O)[nH]1 + Cc1cnc(CNC(=O)c2c(=O)c3ccc(N4CCCN(C)CC4)nc3n3c2sc2ccccc23)cn1
[out] active

[in] Test call for this compound, please: O=c1[nH]cc(F)c(=O)[nH]1 + CN(C)c1ccc(Nc2c3ccc(NC(=O)CCN4CCCC4)cc3nc3cc(NC(=O)CCN4CCCC4)ccc23)cc1
[out] inactive

[in] Test call for this compound, please: CC(=O)O[C@H]1C(=O)[C@@]2(C)[C@H]([C@H](OC(=O)c3ccccc3)[C@]3(O)C[C@H](OC(=O)[C@H](O)[C@@H](NC(=O)c4ccccc4)c4ccccc4)C(C)=C1C3(C)C)[C@]1(OC(C)=O)CO[C@@H]1C[C@@H]2O + CN(C)c1ccc(Nc2c3ccc(NC(=O)CCN4CCCC4)cc3nc3cc(NC(=O)CCN4CCCC4)ccc23)cc1
[out] active

[in] Test call for this compound, please: O=C(NO)c1cnc(N2CCN(S(=O)(=O)c3ccc4ccccc4c3)CC2)nc1 + CN(C)c1ccc(Nc2c3ccc(NC(=O)CCN4CCCC4)cc3nc3cc(NC(=O)CCN4CCCC4)ccc23)cc1
[out] inactive

====

- Test system: 966289-007-R4-J1-PDC complex spheroid viability
- Assay name: Anticancer human tumor 966289-007-R4-J1-PDC cell line growth inhibition [GQUAD];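 also: spheroids exposed to the agents for seven days before readout; percent viability relative to DMSO vehicle control wells taken as 100%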
- Test conditions: second compound 10 µM; first compound 0.00316 µM; active compounds read low
label 1 if viability, T/C is below 0.9%. label 0 if not; exact matches included in label 0.

[in] Lab log: compare recorded viability, T/C with 0.9%; is it strictly lower for CCc1c2c(nc3ccc(O)cc13)-c1cc3c(c(=O)n1C2)COC(=O)[C@]3(O)CC + Cc1cnc(CNC(=O)c2c(=O)c3ccc(N4CCCN(C)CC4)nc3n3c2sc2ccccc23)cn1 ?
[out] label 1

[in] Lab log: compare recorded viability, T/C with 0.9%; is it strictly lower for CC[C@@]1(O)C(=O)OCc2c1cc1n(c2=O)Cc2cc3c(CN(C)C)c(O)ccc3nc2-1 + CN(C)c1ccc(Nc2c3ccc(NC(=O)CCN4CCCC4)cc3nc3cc(NC(=O)CCN4CCCC4)ccc23)cc1 ?
[out] label 0

[in] Lab log: compare recorded viability, T/C with 0.9%; is it strictly lower for Cc1[nH]c2ccccc2c1CCNCc1ccc(/C=C/C(=O)NO)cc1 + Cc1cnc(CNC(=O)c2c(=O)c3ccc(N4CCCN(C)CC4)nc3n3c2sc2ccccc23)cn1 ?
[out] label 1

[in] Lab log: compare recorded viability, T/C with 0.9%; is it strictly lower for Cc1[nH]c2ccccc2c1CCNCc1ccc(/C=C/C(=O)NO)cc1 + Cc1[nH]c2ccc(F)cc2c1-c1nc2c3cccnc3c3ncccc3c2[nH]1 ?
[out] label 0

[in] Lab log: compare recorded viability, T/C with 0.9%; is it strictly lower for Cc1[nH]c2ccccc2c1CCNCc1ccc(/C=C/C(=O)NO)cc1 + CN(C)c1ccc(Nc2c3ccc(NC(=O)CCN4CCCC4)cc3nc3cc(NC(=O)CCN4CCCC4)ccc23)cc1 ?
[out] label 0

[in] Lab log: compare recorded viability, T/C with 0.9%; is it strictly lower for CC[C@@]1(O)C(=O)OCc2c1cc1n(c2=O)Cc2cc3c(CN(C)C)c(O)ccc3nc2-1 + Cc1[nH]c2ccc(F)cc2c1-c1nc2c3cccnc3c3ncccc3c2[nH]1 ?
[out] label 0

[in] Lab log: compare recorded viability, T/C with 0.9%; is it strictly lower for CCc1c2c(nc3ccc(O)cc13)-c1cc3c(c(=O)n1C2)COC(=O)[C@]3(O)CC + CN(C)c1ccc(Nc2c3ccc(NC(=O)CCN4CCCC4)cc3nc3cc(NC(=O)CCN4CCCC4)ccc23)cc1 ?
[out] label 1

The origin of these recorded values is PubChem BioAssay AID2060488.
